# System: HeLa MKYP cells
# Protocol Notes: Cell death measured by DAPI staining, with 1 μM FCCP/oligomycin or no toxin (no FO)
# Type: cell-based
# Condition Details: 25 μM compound, no FO
This listing pairs compounds with measured Cell death at 25 μM (no FO) (%).

[
  {
    "Compound": "Fc1ccc2c(c1)CC[C@@H](N1CCOCC1)[C@@H]2Nc1ncnc2[nH]c(C3CC3)cc12",
    "Cell death at 25 μM (no FO) (%)": 12.9
  },
  {
    "Compound": "FC(F)(F)c1cc2c(N[C@@H]3c4ccccc4CC[C@@H]3N3CCOCC3)ncnc2[nH]1",
    "Cell death at 25 μM (no FO) (%)": 41.4
  },
  {
    "Compound": "FC(F)(F)c1cc2c(N[C@H]3c4ccccc4OC[C@@H]3N3CCOCC3)ncnc2[nH]1",
    "Cell death at 25 μM (no FO) (%)": 5.92
  },
  {
    "Compound": "Fc1ccc2c(c1)CC[C@H](N1CCOCC1)[C@H]2Nc1ncnc2[nH]c(C3CC3)cc12 (single isomer, unassigned) [EP-0039746]",
    "Cell death at 25 μM (no FO) (%)": 3.3
  },
  {
    "Compound": "c1ccc2c(c1)CC[C@H](N1C[C@H]3COC[C@H]3C1)[C@H]2Nc1ncnc2[nH]c(C3CC3)cc12",
    "Cell death at 25 μM (no FO) (%)": 12.9
  },
  {
    "Compound": "CN(CC1CCOCC1)[C@H]1CCc2ccccc2[C@@H]1Nc1ncnc2[nH]c(C(F)(F)F)cc12",
    "Cell death at 25 μM (no FO) (%)": 11.4
  },
  {
    "Compound": "O=C1COCCN1[C@H]1CCc2ccccc2[C@@H]1Nc1ncnc2[nH]c(C(F)(F)F)cc12 (single isomer, unassigned)",
    "Cell death at 25 μM (no FO) (%)": 4.55
  },
  {
    "Compound": "FC(F)(F)c1cc2c(N[C@H]3c4ccccc4CC[C@@H]3N3C[C@H]4COC[C@H]4C3)ncnc2[nH]1 [EP-0038461]",
    "Cell death at 25 μM (no FO) (%)": 4.31
  },
  {
    "Compound": "FC(F)(F)c1cc2c(N[C@H]3c4ccccc4CC[C@@H]3N3CC4(CCOCC4)C3)ncnc2[nH]1 (single isomer, unassigned)",
    "Cell death at 25 μM (no FO) (%)": 59.8
  },
  {
    "Compound": "FC1(F)CCN([C@H]2CCc3ccccc3[C@@H]2Nc2ncnc3[nH]c(C(F)(F)F)cc23)CC1 (single isomer, unassigned)",
    "Cell death at 25 μM (no FO) (%)": 1.98
  },
  {
    "Compound": "Fc1ccc2c(c1)CC[C@H](N1CCOCC1)[C@H]2Nc1ncnc2[nH]c(C(F)(F)F)cc12 (single isomer, unassigned)",
    "Cell death at 25 μM (no FO) (%)": 2.53
  },
  {
    "Compound": "c1ccc2c(c1)CC[C@H](N1CCOCC1)[C@H]2Nc1ncnc2[nH]c(C3CC3)cc12 (racemic)",
    "Cell death at 25 μM (no FO) (%)": 3.02
  },
  {
    "Compound": "FC(F)(F)c1cc2c(N[C@H]3c4ccccc4CC[C@@H]3N3C4CCC3COC4)ncnc2[nH]1",
    "Cell death at 25 μM (no FO) (%)": 9.6
  },
  {
    "Compound": "Fc1ccc2c(c1)CC[C@@H](N1CCOCC1)[C@@H]2Nc1ncnc2[nH]c(C(F)(F)F)cc12 (single isomer, unassigned)",
    "Cell death at 25 μM (no FO) (%)": 3.1
  },
  {
    "Compound": "CN(c1ncnc2[nH]c(C3CC3)cc12)C1c2ccccc2CCC1N1C[C@H]2COC[C@H]2C1 (stereo partly drawn)",
    "Cell death at 25 μM (no FO) (%)": 11.6
  },
  {
    "Compound": "FC(F)(F)c1cc2c(N[C@@H]3c4ccccc4CC[C@H]3N3CCOCC3)ncnc2[nH]1 (racemic) [EP-0037821]",
    "Cell death at 25 μM (no FO) (%)": 41.03
  },
  {
    "Compound": "FC(F)(F)c1cc2c(N[C@H]3c4ccccc4CC[C@@H]3N3CCCCC3)ncnc2[nH]1 (single isomer, unassigned)",
    "Cell death at 25 μM (no FO) (%)": 3.1
  },
  {
    "Compound": "c1ccc2c(c1)CC[C@H](N1CCOCC1)[C@H]2Nc1ncnc2[nH]cnc12",
    "Cell death at 25 μM (no FO) (%)": 1.77
  },
  {
    "Compound": "FC(F)(F)c1cc2c(N[C@@H]3c4ccccc4CC[C@H]3N3C[C@H]4COC[C@H]4C3)ncnc2[nH]1 (single isomer, unassigned)",
    "Cell death at 25 μM (no FO) (%)": 6.03
  },
  {
    "Compound": "FC(F)(F)c1cc2c(N[C@@H]3c4ccccc4CC[C@H]3N3CCOCC3)ncnc2[nH]1 (single isomer, unassigned) [EP-0038099]",
    "Cell death at 25 μM (no FO) (%)": 4.11
  },
  {
    "Compound": "CN(c1ncnc2[nH]c(C(F)(F)F)cc12)C1c2ccccc2CCC1N1C[C@H]2COC[C@H]2C1 (stereo partly drawn)",
    "Cell death at 25 μM (no FO) (%)": 2.45
  },
  {
    "Compound": "COC1CCN([C@H]2CCc3ccccc3[C@@H]2Nc2ncnc3[nH]c(C(F)(F)F)cc23)CC1",
    "Cell death at 25 μM (no FO) (%)": 66.6
  },
  {
    "Compound": "FC(F)(F)c1cc2c(N[C@H]3c4ccccc4CC[C@@H]3N3C[C@H]4COC[C@H]4C3)ncnc2[nH]1 (single isomer, unassigned) [EP-0038582]",
    "Cell death at 25 μM (no FO) (%)": 3.77
  },
  {
    "Compound": "FC(F)(F)c1cc2c(N[C@H]3c4ccccc4CC[C@@H]3N3CC4(COC4)C3)ncnc2[nH]1",
    "Cell death at 25 μM (no FO) (%)": 3.69
  },
  {
    "Compound": "c1ccc2c(c1)OC[C@H](N1CCOCC1)[C@H]2Nc1ncnc2[nH]c(C3CC3)cc12",
    "Cell death at 25 μM (no FO) (%)": 4.73
  },
  {
    "Compound": "FC(F)(F)c1cc2c(N[C@H]3c4ccccc4CC[C@@H]3N3CCOCC3)ncnc2[nH]1 (single isomer, unassigned)",
    "Cell death at 25 μM (no FO) (%)": 5.29
  },
  {
    "Compound": "Fc1ccc2c(c1)CC[C@H](N1CCOCC1)[C@H]2Nc1ncnc2[nH]c(C3CC3)cc12 (single isomer, unassigned) [EP-0038521]",
    "Cell death at 25 μM (no FO) (%)": 3.42
  }
]

* * *

# Tested on: HeLa MKYP cells
# Protocol Notes: Cell death measured by DAPI staining, with 1 μM FCCP/oligomycin or no toxin (no FO)
# Format: cell-based
# Condition Details: with 1 μM FO
# thresholds on Max % death with 1 μM FO define classes: low = under 6%, mid = from 6% up to 8%, high = 8% and over

[
  {
    "Molecule": "C[C@@H]1CN([C@H]2COc3cc(F)ccc3[C@@H]2Nc2ncnc3[nH]c(C4CC4)cc23)C[C@H](C)O1 [EP-0040948]",
    "Assigned Label": "low"
  },
  {
    "Molecule": "FC(F)(F)c1cc2c(N[C@H]3c4ccccc4OC[C@@H]3N3CCC4(COC4)C3)ncnc2[nH]1 (single isomer, unassigned) [EP-0041516]",
    "Assigned Label": "high"
  },
  {
    "Molecule": "FC(F)(F)c1cc2c(N[C@H]3c4ccccc4CC[C@@H]3N3CC4(CCOCC4)C3)ncnc2[nH]1 (single isomer, unassigned) [EP-0038463]",
    "Assigned Label": "high"
  },
  {
    "Molecule": "COC1CN([C@H]2COc3ccccc3[C@@H]2Nc2ncnc3[nH]c(C(F)(F)F)cc23)C1 [EP-0040849]",
    "Assigned Label": "low"
  },
  {
    "Molecule": "FC(F)(F)c1cc2c(N[C@H]3c4ccccc4CC[C@@H]3OCC3CCOCC3)ncnc2[nH]1 (single isomer, unassigned) [EP-0038523]",
    "Assigned Label": "low"
  },
  {
    "Molecule": "CO[C@H]1CCN([C@@H]2COc3ccccc3[C@H]2Nc2ncnc3[nH]c(C4CC4)cc23)C1 [EP-0041518]",
    "Assigned Label": "mid"
  },
  {
    "Molecule": "C[C@@H]1COCCN1[C@@H]1CCc2ccccc2[C@H]1Nc1ncnc2[nH]c(C(F)(F)F)cc12 (single isomer, unassigned) [EP-0040197]",
    "Assigned Label": "high"
  },
  {
    "Molecule": "Fc1ccc2c(c1)OC[C@H](N1C[C@H]3COC[C@@H]3C1)[C@H]2Nc1ncnc2[nH]c(C(F)(F)F)cc12 (single isomer, unassigned) [EP-0040747]",
    "Assigned Label": "low"
  },
  {
    "Molecule": "OC[C@H]1CN([C@H]2COc3ccccc3[C@@H]2Nc2ncnc3[nH]c(C(F)(F)F)cc23)CCO1 (single isomer, unassigned) [EP-0041559]",
    "Assigned Label": "low"
  },
  {
    "Molecule": "C[C@@H]1CN([C@@H]2COc3ccccc3[C@H]2Nc2ncnc3[nH]c(C(F)(F)F)cc23)CCO1 [EP-0040956]",
    "Assigned Label": "high"
  },
  {
    "Molecule": "CO[C@@H]1CCN([C@H]2COc3ccccc3[C@@H]2Nc2ncnc3[nH]c(C4CC4)cc23)C1 [EP-0041451]",
    "Assigned Label": "mid"
  },
  {
    "Molecule": "FC(F)(F)c1cc2c(N[C@H]3c4ccccc4OC[C@H]3C3CCCOC3)ncnc2[nH]1 (mixture of isomers) [EP-0041004]",
    "Assigned Label": "high"
  }
]
